// provenance: the supplement of paper PMC9254222

System: HEK293T (UBE3A T485A transfected, BAR Wnt reporter)
Test: Renilla luciferase signal (cell health) relative to plate median (fold (linear ratio)); higher = higher Renilla signal
Details: concentration: 10 uM; 24 h
Whole data set: some 1,100 compounds, median “Renilla luciferase signal (cell health) relative to plate median” near 0.97, cut for the highest 2% near 1.6. The sample holds the highest values, similar compounds and a random draw of the others, so the mix is not that of the screen.
The threshold is inclusive: Renilla luciferase signal of exactly 1 counts as true (1); values below receive false (0).

| compound | discrete label |
| --- | --- |
| Cc1nc(C)nc(N2C[C@@H](C)N(c3ccnc([C@@H](C)O)n3)[C@@H](C)C2)n1 | true (1) |
| O=[N+]([O-])c1ccc([O-])cc1.[Na+] [Sodium 4-nitrophenolate] | false (0) |
| O=C1CN(N=Cc2ccc([N+](=O)[O-])o2)C(=O)N1 [Nitrofurantoin] | true (1) |

Alright, here's another compound for you.
Quick check: does CCNc1nc(N)nc(Cl)n1 [Deisopropylatrazine] have Renilla luciferase signal greater than or equal to 1?
false (0)

###

Tested on: HEK293T (UBE3A T485A transfected, BAR Wnt reporter)
Experiment: Renilla luciferase signal (cell health) relative to plate median (fold (linear ratio)); higher = higher Renilla signal
Settings: concentration: 0.01 uM; 24 h
The full ranking holds about 1,100 compounds; the median of “Renilla luciferase signal (cell health) relative to plate median” is about 0.97, and the highest 2% start at about 1.6. The full list was thinned out, with the highest values kept by preference.
experimental endpoint: Renilla luciferase signal
Enter the number alone.

| molecule | Renilla luciferase signal |
| --- | --- |
| c1ccc(Nc2ccccc2)cc1 | 1.09 |
| COc1c(Cl)ccc(Cl)c1C(=O)O | 1.07 |
| [Cl-].[Li+] | 0.945 |
| CCNc1nc(N)nc(Cl)n1 | 0.898 |
| O=C(O)c1cn(C2CC2)c2cc(N3CCNCC3)c(F)cc2c1=O | 1.06 |

Entry [Cl-].[K+] : reported Renilla luciferase signal = ?
1.13

Entry CCSC(=O)N(CC(C)C)CC(C)C [Butylate] : reported Renilla luciferase signal = ?
1.09

Entry CCOC(=O)COc1cc(-n2ncc(C(F)(F)F)c(C)c2=O)c(F)cc1Cl : reported Renilla luciferase signal = ?
1.2

Entry CCCN(CCC)C(=O)SCC : reported Renilla luciferase signal = ?
0.911

Entry S=C([S-])NCCNC(=S)[S-].[Mn+2] : reported Renilla luciferase signal = ?
0.874

Entry CCN(Cc1c(F)cccc1Cl)c1c([N+](=O)[O-])cc(C(F)(F)F)cc1[N+](=O)[O-] : reported Renilla luciferase signal = ?
1.1

###

Test system: HEK293T (UBE3A T485A transfected, BAR Wnt reporter)
Assay: Renilla luciferase signal (cell health) relative to plate median (fold (linear ratio)); higher = higher Renilla signal
Conditions: concentration: 100 uM; 24 h
Whole data set: some 1,100 compounds, median “Renilla luciferase signal (cell health) relative to plate median” near 0.97, cut for the highest 2% near 1.6. The list comes from a sample in which the highest values are over-represented; it also holds close analogues and randomly drawn compounds.
experimental endpoint: Renilla luciferase signal
Enter the number alone.

Entry C#C[C@]1(O)CC[C@H]2[C@@H]3CCC4=CC(=O)CC[C@@H]4[C@H]3CC[C@@]21C : reported Renilla luciferase signal = ?
0.294

Entry Cn1cc[nH]c1=S : reported Renilla luciferase signal = ?
2.27

###

Test system: HEK293T (UBE3A T485A transfected, BAR Wnt reporter)
Assay: Renilla luciferase signal (cell health) relative to plate median (fold (linear ratio)); higher = higher Renilla signal
Conditions: concentration: 1 uM; 24 h
Whole data set: some 1,100 compounds, median “Renilla luciferase signal (cell health) relative to plate median” near 0.97, cut for the highest 2% near 1.6. Many of the other results were omitted from the sample, so the highest values are more common in it than they were.
experimental endpoint: Renilla luciferase signal
Enter the number alone.

| compound | measurement target | Renilla luciferase signal |
| --- | --- | --- |
| O=C(O)CC(O)(CC(=O)O)C(=O)O | HEK293T (UBE3A T485A transfected, BAR Wnt reporter) | 0.981 |
| CC(C)c1cccc(C(C)C)c1 | HEK293T (UBE3A T485A transfected, BAR Wnt reporter) | 1.28 |
| CCOC(=O)COc1cc(-n2ncc(C(F)(F)F)c(C)c2=O)c(F)cc1Cl | HEK293T (UBE3A T485A transfected, BAR Wnt reporter) | 1.07 |
| CCCCCCC(C)OC(=O)COc1nc(F)c(Cl)c(N)c1Cl (stereo not given) | HEK293T (UBE3A T485A transfected, BAR Wnt reporter) | 1.15 |

// next item, Renilla luciferase signal requested
Entry CCCCCCCCOC(=O)c1cc(O)c(O)c(O)c1 [Octyl gallate] : reported Renilla luciferase signal = ?
0.947

###

Reported values of Renilla luciferase signal for individual entries
Tested on: HEK293T (UBE3A T485A transfected, BAR Wnt reporter)
Test: Renilla luciferase signal (cell health) relative to plate median (fold (linear ratio)); higher = higher Renilla signal
Details: concentration: 100 uM; 24 h
Over roughly 1,100 compounds, “Renilla luciferase signal (cell health) relative to plate median” has its median near 0.97; the highest 2% begin near 1.6. The sample as a whole holds a higher share of the highest values than the screen did.
Enter the number alone.

Here is how some compounds turned out for Renilla luciferase signal.
| compound | Renilla luciferase signal |
| --- | --- |
| CC(=O)S[C@H](C(=O)N[C@H]1Cc2ccccc2[C@H]2CCC[C@@H](C(=O)O)N2C1=O)C(C)C [Ilepatril] | 1.53 |
| CCCCCCCC/C=C\CCCCCCCC(=O)OC[C@@H](O)[C@H]1OC[C@H](O)[C@H]1O [Sorbitan, mono-(9Z)-9-octadecenoate] | 0.85 |
| O=c1c(-c2ccc(O)cc2)coc2cc(O)cc(O)c12 [Genistein] | 1.01 |

Entry CN(C)C(=O)Nc1ccc(Cl)c(Cl)c1 [Diuron] : reported Renilla luciferase signal = ?
0.328

Entry CC(=O)OC1CC(C)OC(C)O1 (stereo not drawn) [Dimethoxane] : reported Renilla luciferase signal = ?
1.63

Entry CN(C)c1ccc(C(=C2C=CC(=[N+](C)C)C=C2)c2ccc(N(C)C)cc2)cc1.[Cl-] [Gentian Violet] : reported Renilla luciferase signal = ?
0.0226

Entry CCOC(=O)COc1cc(-n2ncc(C(F)(F)F)c(C)c2=O)c(F)cc1Cl [Flufenpyr-ethyl] : reported Renilla luciferase signal = ?
1.51

Entry CC[C@H]1CC[C@H](NCc2cc3c(cc2OC)[C@H]2C[C@H]2C(=O)N3C)[C@H](c2ccccc2)N1 : reported Renilla luciferase signal = ?
0.0275

Entry CCNc1cccc(C)c1 [N-Ethyl-3-methylaniline] : reported Renilla luciferase signal = ?
0.872

Entry O=C(O)c1cccc(C(=O)O)c1 [1,3-Benzenedicarboxylic acid] : reported Renilla luciferase signal = ?
1.35

Entry CC[C@H](C)C(=O)O[C@H]1C[C@H](O)C=C2C=C[C@H](C)[C@H](CC[C@@H](O)C[C@@H](O)CC(=O)[O-])[C@H]21.[Na+] [Pravastatin sodium] : reported Renilla luciferase signal = ?
1.15

Entry O=C(O)CCCCC(=O)O [Hexanedioic acid] : reported Renilla luciferase signal = ?
1.08

Entry COC(=O)c1ccccc1O [Methyl salicylate] : reported Renilla luciferase signal = ?
0.53

Entry O=C(O)c1ccccc1 [Benzoic acid] : reported Renilla luciferase signal = ?
1.77

Entry CCCCCCCCOC(=O)c1cc(O)c(O)c(O)c1 [Octyl gallate] : reported Renilla luciferase signal = ?
0.0786

Entry CCCCCCCCCCCC(=O)OC [Methyl dodecanoate] : reported Renilla luciferase signal = ?
0.89

Entry CCOc1cccc(-n2cc(C(=O)N3CCN(c4cc(C(=O)[O-])c5ccccc5c4)CC3)nc2-c2ccc(C)cc2)c1.[Na+] : reported Renilla luciferase signal = ?
0.0785

Entry COC(=O)CCCCC(=O)OC [Dimethyl adipate] : reported Renilla luciferase signal = ?
1.11

###

System: HEK293T (UBE3A T485A transfected, BAR Wnt reporter)
Test: Renilla luciferase signal (cell health) relative to plate median (fold (linear ratio)); higher = higher Renilla signal
Conditions: concentration: 0.1 uM; 24 h
Whole data set: some 1,100 compounds, median “Renilla luciferase signal (cell health) relative to plate median” near 0.97, cut for the highest 2% near 1.6. Many of the other results were omitted from the sample, so the highest values are more common in it than they were.
The threshold is inclusive: Renilla luciferase signal of exactly 1 counts as t; values below receive f.

Quick check: does CCCCCCCCCCCCCCO have Renilla luciferase signal greater than or equal to 1?
f

Quick check: does Cc1nc(-c2ccccn2)ncc1C(=O)Nn1cc(C)c2cc(F)ccc21 have Renilla luciferase signal greater than or equal to 1?
f

Quick check: does Nc1cccc(N)c1 have Renilla luciferase signal greater than or equal to 1?
t
